All figures here come from PubChem BioAssay AID1159580.

Assay: chemical genetic growth profiling, strain panel (AID 1159580);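 further: tested at 20 µM; growth read once vehicle control cultures reached saturation at 30 °C; 1 = growth at the plate median or of vehicle wells; lower values mean less growth of the strain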
Conditions: S. cerevisiae deletion strains, growth OD, locus YBR021W, strain FUR4, active compounds read low
In all, about 5,500 compounds went through this assay and about 2,000 (36%) were called active. Roughly 18% stayed inconclusive and do not appear here. This is one part of the list.
normalized growth strictly less than 1 = condition met. Otherwise condition not met.

Q: Quick check: normalized growth of `O=C1C=CC(=O)c2c(O)cccc21` under 1?
Ans: condition not met

More entries:
Q: Does `O=C(Nc1ccc([N+](=O)[O-])cc1Cl)c1cc(Cl)ccc1O` have normalized growth strictly under 1?
Ans: condition met

###

This listing pairs compounds with measured normalized growth.
Assay: chemical genetic growth profiling, strain panel (AID 1159580);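 further: tested at 20 µM; growth read once vehicle control cultures reached saturation at 30 °C; 1 = growth at the plate median or of vehicle wells; lower values mean less growth of the strain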
Conditions: S. cerevisiae deletion strains, growth OD, locus YDR162C, strain NBP2, active compounds read low
In all, about 5,500 compounds went through this assay and about 2,000 (36%) were called active. About 18% were inconclusive and are not listed. This is one part of the list.
Respond numerically, and do not add a unit to the figure.

Q: Requested read-out: normalized growth. Entry: `COc1ccc(-c2c(OC)c3c(OC)c4c(cc3oc2=O)OC(C)(C)C=C4)cc1`
Ans: 1.06

New cases:
Q: # get_value(readout='normalized growth', item= C[N+]12CCC(CC1)C(OC(=O)C(O)(c1ccccc1)c1ccccc1)C2 (configuration not stated) )
Ans: 1

Q: What value of normalized growth has been reported for the following compound? `COc1ccc(-c2c(O)c3c(OC)c4c(cc3oc2=O)OC(C)(C)C=C4)cc1`
Ans: 0.962

Q: Consider the compound shown here: COP(=O)(NC(C)=O)SC (configuration not stated) What is its recorded normalized growth?
Ans: 1.04

###

Assay: chemical genetic growth profiling, strain panel (AID 1159580);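 further: tested at 20 µM; growth read once vehicle control cultures reached saturation at 30 °C; 1 = growth at the plate median or of vehicle wells; lower values mean less growth of the strain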
Settings: S. cerevisiae deletion strains, growth OD, locus YFR010W, strain ubp6, active compounds read low
Screen size: about 5,500 compounds; about 2,000 (36%) were called active. Inconclusive results (about 18%) are left out. The list shows a part of the results.
Define the label as 1 (yes) when normalized growth is strictly less than 1 and as 0 (no) in all remaining cases.

Q: Input `CC1=C(C(=O)O)N2C(=O)[C@@H](NC(=O)[C@@H](N)c3ccc(O)cc3)[C@H]2SC1` ; condition: normalized growth strictly below 1. Does it hold?
Ans: 0 (no)

Q: Please check: normalized growth for COCC1=C(C(=O)OC(C)OC(=O)OC(C)C)N2C(=O)[C@@H](NC(=O)/C(=N\OC)c3csc(N)n3)[C@H]2SC1 (stereo partly specified) , strictly under 1 or not?
Ans: 1 (yes)

---
Q: Hello, is normalized growth of the following molecule strictly smaller than 1? `O=C(/C=C/c1ccccc1)c1ccc(O[C@@H]2O[C@H](CO)[C@@H](O)[C@H](O)[C@H]2O)cc1O`
Ans: 1 (yes)

Q: Say whether its normalized growth is strictly beneath 1. Entry: `CC(=O)Nc1c(I)cc(I)c(C(=O)O)c1I`
Ans: 1 (yes)

Q: Quick check: normalized growth of COC1=CC23CCCN2CCc2cc4c(cc2C3C1O)OCO4 (stereo unspecified) under 1?
Ans: 0 (no)

Q: Please indicate whether the reported normalized growth of `O=C(/C=C/c1ccc(O)cc1)c1ccccc1O` is strictly below 1.
Ans: 1 (yes)

Q: Check if normalized growth falls below 1 for `O=C(/C=C/c1ccccc1)c1ccc(O)cc1O` .
Ans: 1 (yes)
